- Test system: Candida albicans
- EXPERIMENT_NOTES: Antifungal activity against Candida albicans ATCC 90023 assessed as inhibition of fungal growth incubated for 24 hrs by CLSI based two serial dilution assay
- Format: functional
Please respond with True when measured MIC is strictly beneath 30 µM, and with False in all other cases.

Below are worked cases with known answers.
CCCCN1C(=O)/C(=N\Nc2nccs2)c2ccc(F)cc21 : True
CCCCN1C(=O)/C(=N\Nc2nccs2)c2cc(Cl)ccc21 : True
CCCCN1C(=O)/C(=N\Nc2nccs2)c2cc(Br)cc(Br)c21 : True
CCCCN1C(=O)/C(=N\Nc2nccs2)c2cccc(F)c21 : True
CCCCN1C(=O)/C(=N\Nc2nccs2)c2cc(OC)ccc21 : False
CCCCN1C(=O)/C(=N\Nc2nc(C)cs2)c2ccccc21 : True
CCCCN1C(=O)/C(=N\Nc2nccs2)c2c(Cl)cc(Cl)cc21 : True
CCCN1C(=O)/C(=N\Nc2nccs2)c2ccccc21 : False

Q. Threshold test, MIC < 30 µM: CCCCCCCCCCN1C(=O)/C(=N\Nc2nccs2)c2ccccc21
A. False

Q. Criterion: MIC strictly below 30 µM. Is it met by CCCCCCCCN1C(=O)/C(=N\Nc2nccs2)c2ccccc21 ?
A. False

Q. Strictly below 30 µM: is that where MIC of CCCCN1C(=O)/C(=N\Nc2nccs2)c2cc([N+](=O)[O-])ccc21 sits?
A. False

Q. Given CCCCN1C(=O)/C(=N\Nc2nccs2)c2cc(C)ccc21 , is recorded MIC strictly lower than 30 µM?
A. True

Q. Record OC(Cn1cncn1)(Cn1cncn1)c1ccc(F)cc1F [FLUCONAZOLE] : is its MIC strictly below 30 µM?
A. True
